meta.source: the supplement of paper PMC10567573

B1: FAM189A2 (parent)
chain: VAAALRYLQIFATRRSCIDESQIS

# Variants of: B1
# assay.summary: protein stability index of a GFP-peptide fusion (GPS, HEK-293T) (PSI 1-6); higher = more stable;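 also: lentivirally expressed fusions sorted by FACS into six bins by GFP to DsRed ratio, PSI derived from sequencing read proportions per bin multiplied by bin number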
# assay.conditions: c terminus: a fixed tail appended
So I've got a bunch of variants here, and I need their protein stability index values.
Simply state the number, no unit and no words.

q: Which protein stability index reading was recorded for the variant R15C ?
a: 2.03

q: Entry to check: L5H
a: 3.09

q: Note, next up: A12F
a: 2.03

q: Would you mind doing S21E as well?
a: 2.91

q: And C17G ?
a: 3.03

q: // repeat for A12T and report
a: 1.97

q: Next: D19N
a: 2.04

q: Try this variant too: S16V
a: 2.01

q: Also R6V ?
a: 2.96

q: Do the same for Q22G please
a: 3
